What hERG channel testing (Eurofins) was measured for each of the following?
# system_name: hERG channel (Homo sapiens)
# protocol_summary: hERG channel testing
# test_settings: Eurofins
Structures can show the parent of a compound that is named as a salt.

Could you share what hERG channel testing (Eurofins) was measured for O=C(N[C@H]1CC[C@@]2(O)[C@H]3Cc4ccc(O)c5c4[C@@]2(CCN3CC2CC2)[C@H]1O5)c1cccs1 [Example 1 compound 25, hydrochloride] , tested on hERG channel (Homo sapiens)?
2.5 µM (Eurofins)

Entry O=C(N[C@H]1CC[C@@]2(O)[C@H]3Cc4ccc(O)c5c4[C@@]2(CCN3CC2CC2)[C@H]1O5)c1ccsc1 [Example 1 compound 31, hydrochloride] , system hERG channel (Homo sapiens): what hERG channel testing (Eurofins) was measured?
1.3 µM (Eurofins)

Provide the documented hERG channel testing (Eurofins) with hERG channel (Homo sapiens) as the system for O=C(N[C@H]1CCC2(O)C3Cc4ccc(O)c5c4[C@@]2(CCN3CC2CC2)[C@H]1O5)c1ccc[nH]1 (stereo partly shown) [Example 1 compound 1, hydrochloride]
2.6 µM

Please tell me: hERG channel testing (Eurofins) of O=C(N[C@H]1CC[C@@]2(O)[C@H]3Cc4ccc(O)c5c4[C@@]2(CCN3CC2CC2)[C@H]1O5)c1nccs1 [NTZ, hydrochloride] , system hERG channel (Homo sapiens)?
7.4 µM (Eurofins)

---

# system_name: MOR (Mus musculus)
# test_settings: read-out: Ki (nM) MOR; Example 1 compounds (Tables 1, 2)
reported_property: Ki (nM)
Form entry: value (nM) — number only.

Item under review: Cl.O=C(CCc1cccs1)N[C@@H]1CC[C@@]2(O)[C@H]3Cc4ccc(O)c5c4[C@@]2(CCN3CC2CC2)[C@H]1O5 [Example 1 compound 30, hydrochloride] . Reported Ki?
0.26

---

# system_name: KOR (Mus musculus, UniProt P33534)
# protocol_summary: competitive radioligand binding assay, KOR ([3H]diprenorphine, CHO cell membranes)
# Design: expressed in transfected cells; host or cells: CHO
# test_settings: Tables A, B; read-out: Binding Affinity Ki (nM) ± SEM, KOR
Where a name gives a salt, the structure may show the parent alone.
reported_property: Ki (nM)
Express the result in nM but write the number alone.

Sample O=C(N[C@H]1CC[C@@]2(O)[C@H]3Cc4ccc(O)c5c4[C@@]2(CCN3CC2CC2)[C@H]1O5)c1nccs1 [NTZ, hydrochloride] — what was its Ki?
1.3

---

# system_name: MOR (Mus musculus)
# protocol_summary: MOR [35S]GTPγS functional assay (MOR-CHO membranes)
# Format: biochemical
# Parameters: expressed in transfected cells; host or cells: CHO
# test_settings: Tables A, B
Structures can show the parent of a compound that is named as a salt.
reported_property: 35S-GTP[γS]-Binding MOR Efficacy (% max of DAMGO) (%)
Give your result in % as a bare value.

Which 35S-GTP[γS]-Binding MOR Efficacy (% max of DAMGO) is listed for O=C(N[C@H]1CC[C@@]2(O)[C@H]3Cc4ccc(O)c5c4[C@@]2(CCN3CC2CC2)[C@H]1O5)c1nccs1 [NTZ, hydrochloride] ?
11.29

Value lookup for 35S-GTP[γS]-Binding MOR Efficacy (% max of DAMGO); key = O=C(N[C@H]1CC[C@@]2(O)[C@H]3Cc4ccc(O)c5c4[C@@]2(CCN3CC2CC2)[C@H]1O5)c1ccsc1 [Example 1 compound 31, hydrochloride]
30.66

Please look up its 35S-GTP[γS]-Binding MOR Efficacy (% max of DAMGO): O=C(N[C@H]1CC[C@@]2(O)[C@H]3Cc4ccc(O)c5c4[C@@]2(CCN3CC2CC2)[C@H]1O5)c1cccs1 [Example 1 compound 25, hydrochloride]
21.81

Would you mind telling me what 35S-GTP[γS]-Binding MOR Efficacy (% max of DAMGO) value was observed for O=C(N[C@H]1CCC2(O)C3Cc4ccc(O)c5c4[C@@]2(CCN3CC2CC2)[C@H]1O5)c1ccc[nH]1 (stereo partly shown) [Example 1 compound 1, hydrochloride] ?
12.11

---

# protocol_summary: Metabolic Stability (half-life), rat
Where a name gives a salt, the structure may show the parent alone.
reported_property: half-life

For the compound shown here, O=C(N[C@H]1CC[C@@]2(O)[C@H]3Cc4ccc(O)c5c4[C@@]2(CCN3CC2CC2)[C@H]1O5)c1ccsc1 [Example 1 compound 31, hydrochloride] , give the reported half-life.
0.733 h

What half-life value was documented for this compound, O=C(N[C@H]1CC[C@@]2(O)[C@H]3Cc4ccc(O)c5c4[C@@]2(CCN3CC2CC2)[C@H]1O5)c1cccs1 [Example 1 compound 25, hydrochloride] ?
> 1 h

Given the entry O=C(N[C@H]1CC[C@@]2(O)[C@H]3Cc4ccc(O)c5c4[C@@]2(CCN3CC2CC2)[C@H]1O5)c1nccs1 [NTZ, hydrochloride] , report its measured half-life.
> 1 h

May I ask what half-life has been recorded for O=C(N[C@H]1CCC2(O)C3Cc4ccc(O)c5c4[C@@]2(CCN3CC2CC2)[C@H]1O5)c1ccc[nH]1 (stereo partly shown) [Example 1 compound 1, hydrochloride] ?
> 1 h

---

Give measured hM2 binding for each item. Keep answers brief.
# system_name: hM2 (Homo sapiens)
# protocol_summary: side effect profiling, hM2
# Type: binding
# test_settings: at 10 uM
Counter-ions that a name gives are not always drawn.
Enter your answer as a number in %; do not include the unit.

// returns reported hM2 binding for input O=C(N[C@H]1CC[C@@]2(O)[C@H]3Cc4ccc(O)c5c4[C@@]2(CCN3CC2CC2)[C@H]1O5)c1cccs1 [Example 1 compound 25, hydrochloride]
81

For O=C(N[C@H]1CCC2(O)C3Cc4ccc(O)c5c4[C@@]2(CCN3CC2CC2)[C@H]1O5)c1ccc[nH]1 (stereo partly shown) [Example 1 compound 1, hydrochloride] , what is its reported hM2 binding?
58

---

# system_name: hNK3 (Homo sapiens)
Structures can show the parent of a compound that is named as a salt.
reported_property: pKi
pKi is defined as minus the log10 of a concentration measured in mol/L.

Please give the measured pKi for this molecule: O=C(N[C@H]1CC[C@@]2(O)[C@H]3Cc4ccc(O)c5c4[C@@]2(CCN3CC2CC2)[C@H]1O5)c1cccs1 [Example 1 compound 25, hydrochloride]
5.41

---

For each of the molecules below, state its bioavailability.
# protocol_summary: In vivo Bioavailability Foral
# test_settings: po
Structures can show the parent of a compound that is named as a salt.

Find the recorded bioavailability belonging to O=C(N[C@H]1CC[C@@]2(O)[C@H]3Cc4ccc(O)c5c4[C@@]2(CCN3CC2CC2)[C@H]1O5)c1ccsc1 [Example 1 compound 31, hydrochloride] and report it.
15%

Sample O=C(N[C@H]1CC[C@@]2(O)[C@H]3Cc4ccc(O)c5c4[C@@]2(CCN3CC2CC2)[C@H]1O5)c1cccs1 [Example 1 compound 25, hydrochloride] — what was its bioavailability?
19%

Suppose we examine the molecule O=C(N[C@H]1CCC2(O)C3Cc4ccc(O)c5c4[C@@]2(CCN3CC2CC2)[C@H]1O5)c1ccc[nH]1 (stereo partly drawn) [Example 1 compound 1, hydrochloride] ; what bioavailability value has been reported?
59%

---

# protocol_summary: Caco-2 permeability
# test_settings: human, Caco-2, pH 7.4
Counter-ions that a name gives are not always drawn.
reported_property: efflux ratio at 1 h, 10 μM
Give the value as a plain number.

Which efflux ratio at 1 h, 10 μM is listed for O=C(N[C@H]1CC[C@@]2(O)[C@H]3Cc4ccc(O)c5c4[C@@]2(CCN3CC2CC2)[C@H]1O5)c1nccs1 [NTZ, hydrochloride] ?
2.5

---

# system_name: MOR (Mus musculus)
# protocol_summary: MOR [35S]GTPγS functional assay (MOR-CHO membranes)
# Assay type: biochemical
# Parameters: expressed in transfected cells; host or cells: CHO
# test_settings: 35S-GTP[γS]-Binding MOR Potency EC50, nM, Tables A, B
Where a name gives a salt, the structure may show the parent alone.
reported_property: EC50 (nM)
Your answer should be a plain number; it is taken to be in nM.

Item under review: O=C(N[C@H]1CC[C@@]2(O)[C@H]3Cc4ccc(O)c5c4[C@@]2(CCN3CC2CC2)[C@H]1O5)c1cccs1 [Example 1 compound 25, hydrochloride] . Reported EC50?
0.49
